- Condition Notes: buffer; pH 7.4; 200.0 µM
Readout Label: solubility kinetic

Here are 2 compounds together with their reported answers.
>>> reported_measurement("CC(=O)c1ccc(C(=O)NC2CCCN(Cc3ccccc3F)C2)cc1 (stereo not drawn)")
"> 53.2 µg/mL"
>>> reported_measurement("COc1ccc(C(=O)O)cc1S(=O)(=O)NCc1ccncc1")
"> 48.4 µg/mL"

Consider the additional compound presented here.
### Prompt Given the entry CC(=O)CC(CC(=O)NC1CCCCC1)c1ccccc1 (stereo not drawn) , report its measured solubility kinetic.
### Response > 43.1 µg/mL

###

- Condition Notes: buffer; pH 7.4; 200.0 µM
Rule: solubility kinetic of 20 µg/mL or more gives 1; anything lower gives 0.

// below: answered compounds
>>> category_label("CC1CN(C(=O)c2cc([N+](=O)[O-])cc([N+](=O)[O-])c2)CC(C)O1 (stereo not drawn)")
1
>>> category_label("COc1ccc(NC(=O)c2ccccc2NC(=O)c2cccs2)cc1")
0
>>> category_label("Cc1cc(C)cc(NC(=O)Nc2ccc3c(c2)CCC3)c1")
0
>>> category_label("CC(NC(=O)c1ccccc1)C(=O)N/N=C/c1ccccc1 (stereo not drawn)")
1
>>> category_label("Cc1ccc(S(=O)(=O)N2CCOCC2)s1")
1
>>> category_label("Cc1cc(C)c(C(=O)N2CCCC(Nc3ccc(F)cc3)C2)o1 (stereo not drawn)")
1
>>> category_label("COc1ccc(CNC(=O)C2CCCC2)cc1")
1
>>> category_label("CCNc1nc(NCC)nc(Oc2ccc(C(=O)OC)cc2)n1")
0

### Prompt I'd appreciate it if you could say whether `CCS(=O)(=O)N1CCC(C(=O)Nc2cc([N+](=O)[O-])ccc2C)CC1` has solubility kinetic at least equal to 20 µg/mL.
### Response 1

### Prompt I'd appreciate it if you could say whether `CCOc1ccc(S(=O)(=O)N(CC)CC(=O)NC2CC2)cc1` has solubility kinetic at least equal to 20 µg/mL.
### Response 1

### Prompt I'd appreciate it if you could say whether `CS(=O)(=O)Oc1ccc2c(c1)O/C(=C\c1cccnc1)C2=O` has solubility kinetic at least equal to 20 µg/mL.
### Response 0

### Prompt I'd appreciate it if you could say whether `Cc1cc(C)cc(NC(=O)Nc2cc(S(=O)(=O)N(C)C)ccc2C)c1` has solubility kinetic at least equal to 20 µg/mL.
### Response 0

### Prompt I'd appreciate it if you could say whether `Cc1csc(SCC(=O)Nc2ccccc2C)n1` has solubility kinetic at least equal to 20 µg/mL.
### Response 1

### Prompt I'd appreciate it if you could say whether `CCNC(=O)COc1ccc(OCc2ccccc2)cc1` has solubility kinetic at least equal to 20 µg/mL.
### Response 1

### Prompt I'd appreciate it if you could say whether `Cc1noc(NS(=O)(=O)c2ccc(NC(=O)/C=C/c3ccccc3)cc2)c1C` has solubility kinetic at least equal to 20 µg/mL.
### Response 1

### Prompt I'd appreciate it if you could say whether `COc1ccc2nc(-c3ccccc3)cc(C(=O)N3CCC3)c2c1` has solubility kinetic at least equal to 20 µg/mL.
### Response 1

### Prompt I'd appreciate it if you could say whether CC(NC(=O)c1cc(Br)cs1)C1CCCO1 (stereo not drawn) has solubility kinetic at least equal to 20 µg/mL.
### Response 1
